Assay: Stability evaluation in aqueous buffer
Assay type: physicochemical
Conditions: aqueous buffer, pH 4, pH 4 (acetate buffer), 37° C., about 50 μg/mL, about 15% v/v acetonitrile; read-out: Stability (t1/2, h) at 37° C. pH 4 (converted)
Counter-ions that a name gives are not always drawn.
// assign yes (1) if half-life falls strictly below 200 h, else no (0) (ties count as no (0))

| compound | assigned-label |
| --- | --- |
| Cc1c(-c2c(C(C)C)c3cc(C4CCN(CC(N)=O)CC4)ccc3n2C(=O)OC[C@@H]2CCCCN2)cn2ncnc2c1C [Example 1] | no (0) |
| CNCC(=O)n1c(-c2cn3ncnc3c(C)c2C)c(C(C)C)c2cc(C3CCN(CC(N)=O)CC3)ccc21 [Example 5, ditrifluoroacetate] | no (0) |
| CNCC(=O)OCc1cccnc1N(C)C(=O)OC[n+]1cnn2cc(-c3[nH]c4ccc(C5CCN(CC(N)=O)CC5)cc4c3C(C)C)c(C)c(C)c21 [Example 13] | yes (1) |
| Cc1c(-c2c(C(C)C)c3cc(C4CCN(CC(N)=O)CC4)ccc3n2C(=O)OC[C@@H]2CCCN2C(=O)OCOP(=O)(O)O)cn2ncnc2c1C [Example 4] | no (0) |
| Cc1c(-c2c(C(C)C)c3cc(C4CCN(CC(N)=O)CC4)ccc3n2P(=O)(O)O)cn2ncnc2c1C [Example 18] | yes (1) |
| Cc1c(-c2c(C(C)C)c3cc(C4CCN(CC(N)=O)CC4)ccc3n2C(=O)CCCOP(=O)(O)O)cn2ncnc2c1C [Example 10] | no (0) |
| Cc1c(-c2c(C(C)C)c3cc(C4CCN(CC(N)=O)CC4)ccc3n2SC[C@H](N)C(=O)O)cn2ncnc2c1C [Example 11] | no (0) |
| Cc1c(-c2[nH]c3ccc(C4CC[N+](COP(=O)(O)O)(CC(N)=O)CC4)cc3c2C(C)C)cn2ncnc2c1C (single isomer, unassigned) [Example 9, trifluoroacetate] | no (0) |
| CNCC(=O)OCc1cccnc1N(C)C(=O)OC(C)[N+]1(CC(N)=O)CCC(c2ccc3[nH]c(-c4cn5ncnc5c(C)c4C)c(C(C)C)c3c2)CC1 (stereo not shown) [Example 14] | yes (1) |
| Cc1c(-c2c(C(C)C)c3cc(C4CCN(CC(N)=O)CC4)ccc3n2C(=O)OC[C@@H]2CCCCN2C(=O)OCOP(=O)(O)O)cn2ncnc2c1C [Example 2] | no (0) |

Q: Hello, I'm reviewing records and need to know if half-life of CNCCN(C)C(=O)OC[N+]1(CC(N)=O)CCC(c2ccc3[nH]c(-c4cn5ncnc5c(C)c4C)c(C(C)C)c3c2)CC1 (stereo not shown) [Example 23, trifluoroacetate] is below 200 h. Could you check?
A: yes (1)

Q: Thanks! And Cc1c(-c2[nH]c3ccc(C4CC[N+](COC(=O)N(C)CCOP(=O)(O)O)(CC(N)=O)CC4)cc3c2C(C)C)cn2ncnc2c1C (single isomer, unassigned) [Example 20, trifluoroacetate] ?
A: no (0)

Q: Thanks! And CNCC(=O)OCc1cccnc1N(C)C(=O)OC[N+]1(CC(N)=O)CCC(c2ccc3[nH]c(-c4cn5ncnc5c(C)c4C)c(C(C)C)c3c2)CC1 (stereo not shown) [Example 12] ?
A: yes (1)
